All figures here come from ChEMBL document CHEMBL1201862.

- Test system: DMS-273
- EXPERIMENT: NCI tumour cell line growth inhibition, 48 h
Activity calls are given as the source filed them. Rule as the data show it: active = GI50 up to about 1.1 µM and inactive = higher.
Select the matching outcome among T = active, F = inactive

Some solved entries appear below for comparison.
IN: Lab log entry: Cc1cn2c(=O)c3ccccc3nc2s1 — outcome as called in the assay?
OUT: F

IN: Lab log entry: COc1ccc(/C=C\c2cc(OC)c3c(c2)OCO3)c(O)c1O — outcome as called in the assay?
OUT: F

IN: Lab log entry: O=S1(=O)NN=C(NCc2ccc(F)cc2)c2ccccc21 — outcome as called in the assay?
OUT: F

IN: Lab log entry: COC1/C=C\C=C(/C)C(=O)NC2=CC(=O)C=C(C2=O)C(OC)C(C)CC(OC)C(OC)C(C)/C=C(/C)C1OC(N)=O (stereo not given) — outcome as called in the assay?
OUT: F

Next, consider the following compound.
IN: Lab log entry: CN(C)CCNC(=O)c1cccc2c1nc(-c1ccncc1)c1ccccc12 — outcome as called in the assay?
OUT: T

----------
- System: K562
- EXPERIMENT: NCI tumour cell line growth inhibition, 48 h
Activity calls are given as the source filed them. No stated cut-off is given here; in the data, active = GI50 up to about 1.1 µM and inactive = higher. Residues, ends and D or L forms follow the SMILES beside them. *: point of attachment. OBn = c1ccc(CO*)cc1
Select the matching outcome among active, inactive

Some solved entries appear below for comparison.
IN: Lab log entry: CCOC(=O)c1c(NC(=S)Nc2ccc(C)cc2)sc2c1CCN(C)C2 — outcome as called in the assay?
OUT: inactive

IN: Lab log entry: CCCCCCNC(=S)N/N=C(\C)c1ccccn1 — outcome as called in the assay?
OUT: active

IN: Lab log entry: O=C(Cc1ccccc1)NCCc1ccc(O)c(O)c1 — outcome as called in the assay?
OUT: inactive

IN: Lab log entry: Oc1cc(O)c2c(-c3c(O)c(-c4ccc(O)c(O)c4)[o+]c4cc(O)cc(O)c34)c(O)c(-c3ccc(O)c(O)c3)[o+]c2c1 — outcome as called in the assay?
OUT: inactive

IN: Lab log entry: NC(CCC(=O)OCc1ccccc1)C(=O)NC(CCC(=O)OCc1ccccc1)C(=O)O (stereo unspecified) (H-Glu(OBn)-Glu(OBn)-OH; configuration not given here) — outcome as called in the assay?
OUT: inactive

***
IN: Lab log entry: Nc1ccc(-c2nc3ccccc3s2)cc1C(F)(F)F — outcome as called in the assay?
OUT: inactive

IN: Lab log entry: Clc1ccc(C(Cc2ccccc2)c2c(Cl)nc(N3CCNCC3)nc2Cl)cc1 (stereo unspecified) — outcome as called in the assay?
OUT: inactive

IN: Lab log entry: N#C/C(=C\c1ccc(O)cc1)C(N)=O — outcome as called in the assay?
OUT: inactive

IN: Lab log entry: COc1ccc(CCn2cnc3ccccc32)cc1 — outcome as called in the assay?
OUT: inactive

IN: Lab log entry: CCN1CCN(c2nc3ccccc3nc2C(=O)c2ccc(OC)c(OC)c2)CC1 — outcome as called in the assay?
OUT: inactive

IN: Lab log entry: CN(NC(=O)c1ccc(Cl)cc1)C1=NCCCCN1 — outcome as called in the assay?
OUT: inactive

----------
- System: HCT-116
- EXPERIMENT: NCI tumour cell line growth inhibition, 48 h
Activity calls are given as the source filed them. Cut-off read from the data, not from the text of the source: active = GI50 up to about 1.1 µM and inactive = higher.
Select the matching outcome among active, inactive

IN: Lab log entry: C[C@]12CC[C@H]3[C@@H](CCC4=C[C@@H](OC5OCC(OC6OC(CO)C(O)C(O)C6O)C(O)C5O)CC[C@@]43C=O)[C@@]1(O)CCC2C1=CC(=O)OC1 (stereo not given in full) — outcome as called in the assay?
OUT: active

IN: Lab log entry: COC(=O)CCC(NC(=S)N/N=C(\C)c1cnc2ccccc2n1)C(=O)OC (stereo not given) — outcome as called in the assay?
OUT: inactive

IN: Lab log entry: O=c1[nH]nc(Cc2ccccc2)n1/N=C/c1ccc([N+](=O)[O-])cc1 — outcome as called in the assay?
OUT: inactive

IN: Lab log entry: CCOC(=O)N1Cc2ccoc2C1 — outcome as called in the assay?
OUT: inactive

IN: Lab log entry: CN(NC(=O)c1ccc(Cl)cc1)C1=NCCCCN1 — outcome as called in the assay?
OUT: inactive

***
IN: Lab log entry: CCOP(=O)(OCC)C(C(=O)OC)C(=O)C(=O)Nc1c(C)cc(Br)cc1C (stereo not given) — outcome as called in the assay?
OUT: inactive

IN: Lab log entry: CC1(C)CC2(C)CC1CC2O (stereo not given) — outcome as called in the assay?
OUT: inactive

IN: Lab log entry: Cc1ccc([S+]([O-])C[C@@]2(C(F)F)NC(=O)NC2=O)cc1 (stereo not given in full) — outcome as called in the assay?
OUT: inactive

IN: Lab log entry: COc1ccc(/C=C2\N=C(N3CCCCC3)NC2=O)cc1 — outcome as called in the assay?
OUT: inactive

IN: Lab log entry: CC1C2=CC=C(O2)C(C)(C)C2=CC=C(O2)C(C)(C)C2=CC=C(O2)C(C)(C)C2=CC=C1O2 — outcome as called in the assay?
OUT: inactive

IN: Lab log entry: COc1ccc2[nH]cc(/C=C(/C)c3ccncc3)c2c1 — outcome as called in the assay?
OUT: inactive
